target_entity: α1β1γ2 GABAA receptor (β1 subunit) (Rattus norvegicus, UniProt P15431)
Construct: gene Gabrb1; recombinant α1β1γ2 receptor expressed in Xenopus laevis oocytes; with GABAA α1 (Gabra1) and γ2 (Gabrg2) subunits
Sequence (P15431 26-474): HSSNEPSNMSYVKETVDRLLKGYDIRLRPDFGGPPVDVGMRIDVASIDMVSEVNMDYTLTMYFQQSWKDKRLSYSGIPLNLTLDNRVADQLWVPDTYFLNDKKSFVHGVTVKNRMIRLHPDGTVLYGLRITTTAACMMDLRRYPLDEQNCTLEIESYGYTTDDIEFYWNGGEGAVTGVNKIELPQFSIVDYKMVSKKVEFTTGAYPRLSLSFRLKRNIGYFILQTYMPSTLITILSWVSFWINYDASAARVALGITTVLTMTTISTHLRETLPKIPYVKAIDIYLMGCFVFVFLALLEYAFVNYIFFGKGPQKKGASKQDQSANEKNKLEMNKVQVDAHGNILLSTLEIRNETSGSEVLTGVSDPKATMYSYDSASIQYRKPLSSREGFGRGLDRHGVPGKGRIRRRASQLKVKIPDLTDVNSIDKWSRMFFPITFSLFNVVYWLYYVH
Sequence (P62813 28-455 partner): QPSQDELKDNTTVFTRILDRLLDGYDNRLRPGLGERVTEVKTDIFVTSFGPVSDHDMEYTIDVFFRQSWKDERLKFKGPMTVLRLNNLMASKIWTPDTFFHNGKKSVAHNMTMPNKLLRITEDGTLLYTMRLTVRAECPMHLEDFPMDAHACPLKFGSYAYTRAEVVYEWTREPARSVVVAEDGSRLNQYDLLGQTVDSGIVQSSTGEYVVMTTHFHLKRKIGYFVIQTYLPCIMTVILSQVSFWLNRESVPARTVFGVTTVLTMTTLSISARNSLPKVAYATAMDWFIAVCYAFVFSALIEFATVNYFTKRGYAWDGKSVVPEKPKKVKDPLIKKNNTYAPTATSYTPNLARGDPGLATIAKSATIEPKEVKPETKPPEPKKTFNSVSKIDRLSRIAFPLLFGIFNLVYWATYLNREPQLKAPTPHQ
Sequence (P18508 39-466 partner): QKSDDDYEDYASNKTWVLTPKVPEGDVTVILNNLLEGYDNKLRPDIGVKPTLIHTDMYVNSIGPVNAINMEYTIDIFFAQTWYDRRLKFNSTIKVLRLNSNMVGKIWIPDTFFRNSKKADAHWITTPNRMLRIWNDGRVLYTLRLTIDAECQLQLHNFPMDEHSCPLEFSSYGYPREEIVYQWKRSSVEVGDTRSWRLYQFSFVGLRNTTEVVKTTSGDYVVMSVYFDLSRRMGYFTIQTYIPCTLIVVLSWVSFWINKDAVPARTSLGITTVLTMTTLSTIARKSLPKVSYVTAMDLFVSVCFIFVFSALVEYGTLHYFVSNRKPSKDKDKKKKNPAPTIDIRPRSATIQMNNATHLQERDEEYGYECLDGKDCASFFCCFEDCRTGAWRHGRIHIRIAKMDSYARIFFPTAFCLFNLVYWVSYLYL
protocol: two-electrode voltage clamp, potentiation of IGABA at GABA EC10-20
Type: cell-based
condition_details: read-out: EC50

{"molecule": "C=CCc1ccc(O)c(-c2ccc(OC)cc2)c1", "unit_annotation": "µM", "EC50": 30}

----------
target_entity: α1β2γ2 GABAA receptor (β2 subunit) (Rattus norvegicus, UniProt P63138)
Construct: gene Gabrb2; recombinant α1β2γ2 receptor expressed in Xenopus laevis oocytes; with GABAA α1 (Gabra1) and γ2 (Gabrg2) subunits
Sequence (P63138 26-474): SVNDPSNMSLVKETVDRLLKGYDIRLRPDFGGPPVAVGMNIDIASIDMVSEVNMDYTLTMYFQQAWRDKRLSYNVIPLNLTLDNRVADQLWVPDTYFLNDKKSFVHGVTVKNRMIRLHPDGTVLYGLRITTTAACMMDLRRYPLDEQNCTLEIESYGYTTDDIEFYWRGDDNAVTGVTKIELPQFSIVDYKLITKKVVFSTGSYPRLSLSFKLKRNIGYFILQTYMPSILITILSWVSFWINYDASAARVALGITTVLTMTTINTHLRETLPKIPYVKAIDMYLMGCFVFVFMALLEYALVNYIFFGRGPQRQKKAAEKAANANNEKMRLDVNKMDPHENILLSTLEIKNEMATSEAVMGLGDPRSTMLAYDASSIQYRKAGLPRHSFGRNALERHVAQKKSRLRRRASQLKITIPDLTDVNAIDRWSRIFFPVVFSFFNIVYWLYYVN
Sequence (P62813 28-455 partner): as the sequence (P62813 28-455 partner) above
Sequence (P18508 39-466 partner): as the sequence (P18508 39-466 partner) above
protocol: two-electrode voltage clamp, % IGABA at […] compound, GABA EC0.[…]
Assay type: cell-based

{"molecule": "C=CCc1ccc(O)c(-c2cccc(C(=O)OC)c2)c1", "unit_annotation": "%", "activation at 3 µM": 406}
{"molecule": "C=CCc1ccc(O)c(-c2ccccc2C)c1", "unit_annotation": "%", "activation at 3 µM": 207}
{"molecule": "C=CCc1ccc(O)c(-c2cc(CC=C)ccc2O)c1", "unit_annotation": "%", "activation at 3 µM": 338}
{"molecule": "C=CCc1ccc(O)c(-c2cccc(OC)c2)c1", "unit_annotation": "%", "activation at 3 µM": 136}
